EXPERIMENTAL TARGET: GP IIb IIIa (Homo sapiens, UniProt P05106+P08514)
Sequence (P08514 32-887 limits assumed): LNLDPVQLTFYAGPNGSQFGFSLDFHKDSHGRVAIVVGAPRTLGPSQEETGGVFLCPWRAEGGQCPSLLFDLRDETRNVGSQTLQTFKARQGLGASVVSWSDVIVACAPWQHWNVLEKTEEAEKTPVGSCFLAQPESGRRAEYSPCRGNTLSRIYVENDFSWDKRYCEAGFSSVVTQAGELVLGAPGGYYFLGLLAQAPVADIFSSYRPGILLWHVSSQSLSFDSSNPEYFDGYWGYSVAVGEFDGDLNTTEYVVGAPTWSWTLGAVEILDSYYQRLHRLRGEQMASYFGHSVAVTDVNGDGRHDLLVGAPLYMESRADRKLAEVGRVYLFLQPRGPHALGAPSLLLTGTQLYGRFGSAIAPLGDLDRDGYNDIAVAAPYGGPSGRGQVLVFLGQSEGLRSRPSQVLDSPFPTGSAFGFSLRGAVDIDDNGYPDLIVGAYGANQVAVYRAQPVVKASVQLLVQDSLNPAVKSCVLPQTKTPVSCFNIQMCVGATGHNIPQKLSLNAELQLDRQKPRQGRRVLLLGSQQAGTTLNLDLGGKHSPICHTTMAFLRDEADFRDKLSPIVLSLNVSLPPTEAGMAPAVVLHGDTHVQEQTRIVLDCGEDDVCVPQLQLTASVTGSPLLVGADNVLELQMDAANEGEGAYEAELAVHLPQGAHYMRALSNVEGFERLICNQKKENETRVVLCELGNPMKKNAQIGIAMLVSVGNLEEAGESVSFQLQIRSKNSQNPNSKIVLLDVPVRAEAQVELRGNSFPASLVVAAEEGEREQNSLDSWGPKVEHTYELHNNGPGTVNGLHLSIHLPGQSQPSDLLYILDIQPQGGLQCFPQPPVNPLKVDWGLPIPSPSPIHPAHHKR
Sequence (P08514 891-1039 partner limits assumed): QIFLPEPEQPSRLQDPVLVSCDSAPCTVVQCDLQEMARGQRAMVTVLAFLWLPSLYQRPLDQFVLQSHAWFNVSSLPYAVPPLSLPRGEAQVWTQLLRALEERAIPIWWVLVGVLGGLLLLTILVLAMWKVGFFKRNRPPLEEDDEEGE
Sequence (P05106 27-788): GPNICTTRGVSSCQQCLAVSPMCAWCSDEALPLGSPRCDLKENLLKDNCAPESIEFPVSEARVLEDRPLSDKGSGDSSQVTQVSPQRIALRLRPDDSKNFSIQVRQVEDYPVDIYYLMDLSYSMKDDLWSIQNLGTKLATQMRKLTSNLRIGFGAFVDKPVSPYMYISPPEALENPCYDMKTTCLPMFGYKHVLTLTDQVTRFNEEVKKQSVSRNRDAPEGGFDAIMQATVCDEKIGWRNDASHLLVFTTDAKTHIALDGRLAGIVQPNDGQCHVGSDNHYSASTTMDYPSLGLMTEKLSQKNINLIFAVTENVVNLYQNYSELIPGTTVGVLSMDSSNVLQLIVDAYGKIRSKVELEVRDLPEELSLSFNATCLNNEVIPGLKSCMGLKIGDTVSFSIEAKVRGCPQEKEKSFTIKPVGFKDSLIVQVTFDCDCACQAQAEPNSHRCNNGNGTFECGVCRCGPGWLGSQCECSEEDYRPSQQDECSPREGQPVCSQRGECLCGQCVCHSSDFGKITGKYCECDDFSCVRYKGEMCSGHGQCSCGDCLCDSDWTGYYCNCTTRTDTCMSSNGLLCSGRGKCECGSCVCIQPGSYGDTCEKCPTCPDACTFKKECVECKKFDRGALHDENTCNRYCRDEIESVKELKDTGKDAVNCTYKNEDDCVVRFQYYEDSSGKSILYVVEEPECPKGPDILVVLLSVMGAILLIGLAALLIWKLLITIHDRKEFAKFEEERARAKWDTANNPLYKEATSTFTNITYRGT
PROTOCOL: GP IIb IIIa -von Willebrand factor (vWF) ELISA Assay
Type: binding
Set-up: GP IIb IIIa, prepared by the method of Fitzgerald et al; from tissue
RUN CONDITIONS: GP IIb IIIa-coated plates, vWF; read-out: ELISA IC50 GPIIb IIIa vWF
Where a SMILES comes first, the peptide text is derived from it. Bridges are numbered along the chain shown (N, C = ends). [ ]: non-standard residue; d: D form.
EXPERIMENTAL ENDPOINT: IC50 (nM)
Form entry: value (nM) — number only.

N=C(N)NCCC[C@@H]1NC(=O)[C@@H](Cc2ccc(O)cc2)NC(=O)C(CCCCN)SC[C@@H](C(=O)O)NC(=O)[C@H](CC(=O)O)NC(=O)CNC1=O (single isomer, unassigned) [9/10] : 0.785

Here is the next item to consider.
Qu. So what IC50 did N=C(N)NCCC[C@@H]1NC(=O)[C@@H](Cc2ccc(O)cc2)NC(=O)CSC[C@@H](C(=O)N[C@H](CCCNC(=N)N)C(N)=O)NC(=O)[C@H](CC(=O)O)NC(=O)CNC1=O [7/2] ({CH2CO}-[dY]RGDC[dR]-NH2; thioether N-5) get with GP IIb IIIa (Homo sapiens, UniProt P05106+P08514)?
Ans. 2.93

* * *

Quick reference: pIC50 of the listed items.
EXPERIMENTAL TARGET: GP IIb IIIa (Homo sapiens, UniProt P05106+P08514)
PROTOCOL: GP IIb IIIa -von Willebrand factor (vWF) ELISA Assay
Type: binding
Set-up: GP IIb IIIa, prepared by the method of Fitzgerald et al; from tissue
RUN CONDITIONS: GP IIb IIIa-coated plates, vWF; read-out: ELISA IC50 GPIIb IIIa vWF
Where a SMILES comes first, the peptide text is derived from it. Bridges are numbered along the chain shown (N, C = ends). [ ]: non-standard residue; d: D form. The star is where a group is joined. Pen = CC(C)(S)[C@H](N)C(=O)O; Orn = NCCC[C@H](N)C(=O)O; NH(CH2)5NH2 = NCCCCCN*
Convention used: pIC50 is expressed as -log10 of the molar concentration.

N=C(N)NCCC[C@@H]1NC(=O)[C@@H](Cc2ccc(O)cc2)NC(=O)CSC[C@@H](C(=O)N[C@@H](CCCN)C(N)=O)NC(=O)[C@H](CC(=O)O)NC(=O)CNC1=O [7/5] ({CH2CO}-[dY]RGDC[Orn]-NH2; thioether N-5) : 8.16
CC1(C)SCC(=O)N[C@H](Cc2ccc(O)cc2)C(=O)N[C@@H](CCCCN)C(=O)NCC(=O)N[C@@H](CC(=O)O)C(=O)N[C@@H]1C(=O)N[C@@H](CCCNC(=N)N)C(N)=O [7/16] ({CH2CO}-[dY]KGD[Pen]R-NH2; thioether N-5) : 7.27
N=C(N)NCCC[C@@H]1NC(=O)[C@@H](Cc2ccc(O)cc2)NC(=O)CSC[C@@H](C(=O)NCCCCCN)NC(=O)[C@H](CC(=O)O)NC(=O)CNC1=O [8/13] ({CH2CO}-[dY]RGDC-{NH(CH2)5NH2}; thioether N-5) : 8.28
N=C(N)NCCC[C@@H]1NC(=O)[C@@H](Cc2ccc(O)cc2)NC(=O)CSC[C@@H](C(=O)O)NC(=O)[C@H](CC(=O)O)NC(=O)CNC1=O [7/46] ({CH2CO}-[dY]RGDC-OH; thioether N-5) : 9.74
N=C(N)NCCC[C@@H]1NC(=O)[C@@H](Cc2ccc(O)cc2)NC(=O)CSC[C@@H](C(=O)N[C@@H](CCCCN)C(N)=O)NC(=O)[C@H](CC(=O)O)NC(=O)CNC1=O [7/3] ({CH2CO}-[dY]RGDCK-NH2; thioether N-5) : 7.80

Here is the next item to consider.
Qu. So what pIC50 did N=C(N)NCCC[C@@H]1NC(=O)[C@@H](Cc2ccc(O)cc2)NC(=O)CSC[C@@H](C(=O)N[C@H](CCCCN)C(N)=O)NC(=O)[C@H](CC(=O)O)NC(=O)CNC1=O [7/4] ({CH2CO}-[dY]RGDC[dK]-NH2; thioether N-5) get with GP IIb IIIa (Homo sapiens, UniProt P05106+P08514)?
Ans. 8.81

* * *

Quick reference: Rabbit BT Ratio of the listed items.
System: New Zealand White rabbits
PROTOCOL: Rabbit cutaneous bleeding time (CBT)
RUN CONDITIONS: rabbit, Example 1; at the % P.A. inhibition given
*1 amine or outer side, *2 acyl side, *3 side chain or, on linkers, in order; H or OH if unused. Where a SMILES comes first, the peptide text is derived from it. Bridges are numbered along the chain shown (N, C = ends). [ ]: non-standard residue; d: D form. The star is where a group is joined. Ethylenediamine = C(CN[*:2])N[*:1]; NH(CH2)5NH2 = NCCCCCN*
Reply with the value as a number alone.

Check out these entries, answers already filled in.
N=C(N)NCCC[C@H](NC(=O)[C@@H]1CSCC(=O)N[C@H](Cc2ccc(O)cc2)C(=O)N[C@@H](CCCNC(=N)N)C(=O)NCC(=O)N[C@@H](CC(=O)O)C(=O)N1)C(N)=O [7/1] ({CH2CO}-[dY]RGDCR-NH2; thioether N-5) : 1.7
N=C(N)NCCC[C@@H]1NC(=O)[C@@H](Cc2ccc(O)cc2)NC(=O)CSC[C@@H](C(=O)NCCN)NC(=O)[C@H](CC(=O)O)NC(=O)CNC1=O [8/23] ({CH2CO}-[dY]RGDC-Ethylenediamine; thioether N-5) : 0.81

Here is the next item to consider.
Qu. Given the entry N=C(N)NCCC[C@@H]1NC(=O)[C@@H](Cc2ccc(O)cc2)NC(=O)CSC[C@@H](C(=O)NCCCCCN)NC(=O)[C@H](CC(=O)O)NC(=O)CNC1=O [8/13] ({CH2CO}-[dY]RGDC-{NH(CH2)5NH2}; thioether N-5) , report its measured Rabbit BT Ratio.
Ans. 1.13

* * *

EXPERIMENTAL TARGET: GP IIb IIIa (Homo sapiens, UniProt P05106+P08514)
PROTOCOL: GP IIb IIIa -von Willebrand factor (vWF) ELISA Assay
Assay type: binding
Parameters: GP IIb IIIa, prepared by the method of Fitzgerald et al; from tissue
RUN CONDITIONS: GP IIb IIIa-coated plates, vWF; read-out: ELISA IC50 GPIIb IIIa vWF
Where a SMILES comes first, the peptide text is derived from it. Bridges are numbered along the chain shown (N, C = ends). [ ]: non-standard residue; d: D form. The star is where a group is joined. Aad = N[C@@H](CCCC(=O)O)C(=O)O; Pen = CC(C)(S)[C@H](N)C(=O)O; dOrn = NCCC[C@@H](N)C(=O)O; NH(CH2)4NH2 = NCCCCN*
EXPERIMENTAL ENDPOINT: log10 of IC50 (log10 of the value in nM)
// stored as log10 of IC50 expressed in nM

Check out these entries, answers already filled in.
NCCCC[C@@H]1NC(=O)[C@@H](Cc2ccc(O)cc2)NC(=O)C(c2ccccc2)SC[C@@H](C(=O)O)NC(=O)[C@H](CC(=O)O)NC(=O)CNC1=O (single isomer, unassigned) : 0.00
N=C(N)NCCC[C@@H]1NC(=O)[C@@H](Cc2ccc(O)cc2)NC(=O)CSC[C@@H](C(=O)N[C@H](CCCN)C(N)=O)NC(=O)[C@H](CC(=O)O)NC(=O)CNC1=O [7/6] ({CH2CO}-[dY]RGDC[dOrn]-NH2; thioether N-5) : 0.28
N=C(N)NCCC[C@@H]1NC(=O)[C@@H](Cc2ccc(O)cc2)NC(=O)CCC[C@@H](C(=O)N[C@@H](CCCCN)C(N)=O)NC(=O)[C@H](CC(=O)O)NC(=O)CNC1=O [10/20] ([dY]RGD[Aad]K-NH2; lactam N-5) : 0.44

Qu. Given the entry N=C(N)NCCC[C@@H]1NC(=O)[C@@H](Cc2ccc(O)cc2)NC(=O)CSC[C@@H](C(=O)NCCCCN)NC(=O)[C@H](CC(=O)O)NC(=O)CNC1=O [8/12] ({CH2CO}-[dY]RGDC-{NH(CH2)4NH2}; thioether N-5) , report its measured log10 of IC50.
Ans. 0.73

Qu. Given the entry CC1(C)SCC(=O)N[C@H](Cc2ccc(O)cc2)C(=O)N[C@@H](CCCCN)C(=O)NCC(=O)N[C@@H](CC(=O)O)C(=O)N[C@@H]1C(=O)N[C@@H](CCCCN)C(N)=O [7/17] ({CH2CO}-[dY]KGD[Pen]K-NH2; thioether N-5) , report its measured log10 of IC50.
Ans. 1.86

Qu. Given the entry N=C(N)NCCC[C@@H]1NC(=O)[C@@H](Cc2ccc(O)cc2)NC(=O)C(CCCCN)SC[C@@H](C(=O)O)NC(=O)[C@H](CC(=O)O)NC(=O)CNC1=O (single isomer, unassigned) [9/11] , report its measured log10 of IC50.
Ans. 0.84
